Tested on: SKOV-3
test.description: Sulforhodamine B growth inhibition, ovarian SKOV-3
Format: cell-based, human
condition.description: Homo sapiens, SK-OV-3, 48 h, SRB, read-out: GROWTH INHIBITION (GI 50)
measured.parameter: GI50 (µM)
Form entry: value (µM) — number only.

molecule C=C1CCC2[C@](C)(CO)[C@H](O)CC[C@]2(C)[C@H]1C/C=C1/C(=O)OC[C@H]1OC(=O)Nc1ccccc1 (some centres unmarked) [Example 9, 14-phenylcarbamoyl andrographolide] , GI50 observed: 3

For reference, reported GI50 for C=C1CCC2[C@](C)(CO)[C@H](O)CC[C@]2(C)[C@H]1C/C=C1/C(=O)OC[C@H]1OC(=O)c1ccccc1 (some centres unmarked) [Example 14, 14-Benzoyl andrographolide] stands at 3.5

C=C1CC[C@@H]2[C@]3(C)COC(C)(C)O[C@@H]3CC[C@@]2(C)[C@@H]1C/C=C1/C(=O)OC[C@H]1O [Example 1, 3,19-isopropylidene andrographolide] yielded GI50 of 8

Recorded GI50 (molecule C=C1CCC2[C@](C)(CO)[C@H](O)CC[C@]2(C)[C@H]1C/C=C1/C(=O)OC[C@H]1OCc1ccccc1 (some centres unmarked) [Example 15, 14-Benzyl andrographolide] ): 3

Recorded result, C=C1CCC2[C@]3(C)COC(C)(c4ccccc4)O[C@@H]3CC[C@]2(C)[C@H]1C/C=C1/C(=O)OC[C@H]1O (some centres unmarked) [Example 3, 3,19-(1-Phenylethylidene)andrographolide] , GI50: 5
